Hey, just so you know, these numbers are from patent US6583177B2.

target: LTB4 receptor (Homo sapiens)
Construct: The reaction was started by addition of a thoroughly mixed PMN cell suspension (1.6×10^6 cells); endogenous in cells; host or cells: human polymorphonuclear leukocytes (PMN), whole-cell suspension
Sequence (Q15722 whole entry): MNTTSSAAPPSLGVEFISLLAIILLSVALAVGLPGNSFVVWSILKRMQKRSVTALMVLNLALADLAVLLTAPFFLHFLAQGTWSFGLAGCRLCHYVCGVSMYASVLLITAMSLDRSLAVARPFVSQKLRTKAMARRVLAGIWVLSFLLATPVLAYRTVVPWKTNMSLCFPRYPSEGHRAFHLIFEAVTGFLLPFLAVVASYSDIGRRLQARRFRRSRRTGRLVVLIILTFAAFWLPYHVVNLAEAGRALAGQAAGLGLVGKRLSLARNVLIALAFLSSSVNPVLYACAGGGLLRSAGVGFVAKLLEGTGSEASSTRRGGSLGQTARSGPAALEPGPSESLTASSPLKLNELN
assay: Binding inhibition against 3H-LTB4 on the human polymorphonuclear leukocyte (PMN)
condition details: percentage of inhibition of specific 3H-LTB4 (4nM) binding to human PMN, 0° C. for 20 min; formula (IB) compounds, Table 18
If the reported inhibition equals or exceeds 80%, assign Yes. If not, assign No.

Worked set:
> print(dat)
                                   compound  assigned.category
1  C=CCN(CC=C)C(=O)CN(CC=C)C(=O)/C(C)=C/c1ccc(C(=O)Oc2ccc(C(=N)N)cc2)cc1 [Example 2(x)]                Yes
2  CCOC(=O)CC[C@H](NC(=O)c1ccc(/C=C/C(=O)Oc2ccc(C(=N)N)cc2)cc1)C(=O)OCC [Example 2(f)]                Yes
3  CCOC(=O)c1cc2ccccc2n1Cc1ccc(C(=O)Oc2ccc(C(=N)N)cc2)cc1 [Example 5(b)]                Yes
4  C/C(=C\c1ccc(C(=O)Oc2ccc(C(=N)N)cc2)cc1)C(=O)N(CC(=O)O)CC1CCNCC1 [Example 2(dd)]                 No
5  N=C(N)c1ccc(OC(=O)c2ccc(Cn3ccnc3-c3ccccc3)cc2)cc1 [Example 5(a)]                 No

In: Please indicate if the recorded inhibition for C=CCN(CC(=O)OCC)C(=O)c1ccc(C(=O)Oc2ccc(/C=C/C(=N)N)cc2)cc1 [Example 2(i)] meets or exceeds 80%.
Out: No

In: Please indicate if the recorded inhibition for N=C(N)C1=Cc2ccc(OC(=O)c3ccc(C(=O)N(CC(=O)OCc4ccccc4)c4ccccc4)cc3)cc2CC1 [Example 2(b)] meets or exceeds 80%.
Out: Yes

In: Please indicate if the recorded inhibition for C=CCN(CC(=O)Oc1ccc(C(=N)N)cc1)C(=O)/C(C)=C/c1ccc(C(=O)Oc2ccc(C(=N)N)cc2)cc1 [Example 2(v)] meets or exceeds 80%.
Out: Yes

In: Please indicate if the recorded inhibition for C/C(=C\c1ccc(C(=O)Oc2ccc(C(=N)N)cc2)cc1)C(=O)N(CCC(=O)O)C1CCCCC1 [Example 2(aa)] meets or exceeds 80%.
Out: Yes

In: Please indicate if the recorded inhibition for CCOC(=O)CC[C@H](NC(=O)COc1ccc(C(=O)Oc2ccc(C(=N)N)cc2)cc1)C(=O)OCC [Example 2(j)] meets or exceeds 80%.
Out: No

In: Please indicate if the recorded inhibition for C/C(=C\c1ccc(C(=O)Oc2ccc(C(=N)N)cc2)cc1)C(=O)N(CC(=O)O)CC1CCCO1 (centres unmarked) [Example 2(cc)] meets or exceeds 80%.
Out: No

In: Please indicate if the recorded inhibition for C=CCN(CC(=O)OCC)C(=O)C(=Cc1ccc(C(=O)Oc2ccc(C(=N)N)cc2)cc1)C(=O)OCC [Example 2(s)] meets or exceeds 80%.
Out: Yes

In: Please indicate if the recorded inhibition for COc1cc(C(=N)N)ccc1OC(=O)c1ccc(C(=O)N(CCCc2ccccc2)C(Cc2ccccc2)Cc2ccccc2)cc1 [Example 2(ff)] meets or exceeds 80%.
Out: Yes

In: Please indicate if the recorded inhibition for C=CCN(CC(=O)OCCN(C)C)C(=O)/C(C)=C/c1ccc(C(=O)Oc2ccc(C(=N)N)cc2)cc1 [Example 2(u)] meets or exceeds 80%.
Out: No

In: Please indicate if the recorded inhibition for C=CCN(CC(=O)NCCN(C)C)C(=O)/C(C)=C/c1ccc(C(=O)Oc2ccc(C(=N)N)cc2)cc1 [Example 2(t)] meets or exceeds 80%.
Out: No
